The measurements presented in this section are drawn from paper PMC10038052.

Experimental System: MBP-hnRNP A2/B1 (1-251) (UniProt P22626 1-251)
Sequence (P22626 1-251): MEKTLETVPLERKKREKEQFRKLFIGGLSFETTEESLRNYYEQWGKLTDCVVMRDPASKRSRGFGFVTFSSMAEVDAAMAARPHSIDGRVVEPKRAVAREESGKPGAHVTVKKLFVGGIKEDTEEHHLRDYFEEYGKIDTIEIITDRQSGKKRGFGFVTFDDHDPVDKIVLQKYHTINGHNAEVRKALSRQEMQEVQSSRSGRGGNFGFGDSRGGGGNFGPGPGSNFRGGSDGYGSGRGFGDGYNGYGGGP
Protocol Description: fluorescence polarization
Experimental Endpoint: pKd
// pKd here means minus log10 of the molar concentration (mol/L)

q: I have this binder here, AAGGACUAGCAAGGACUAGCAAGGACUAGC (ssRNA) [FAM-H3 (10 mer 3n)] , and I need its recorded pKd.
a: 7.62
